This collection of values is drawn from the supplement of paper PMC10065799.

- assayed-system: Grb2 SH2 (UniProt P62993)
- assay-name: SH2 binding enrichment of the phosphorylated peptide, bacterial display (enrichment ratio); higher = better substrate or ligand; peptides without Tyr show the background;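 further: peptide library displayed on the E. coli surface as eCPX fusions, selected cells deep-sequenced, score is each peptide's frequency after selection divided by its frequency in the input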
recorded-metric: SH2 binding enrichment

Observe how each entry below is paired with its result.
- sequence: "AFLEDYFTSTE [SRC_Y522]"
  assayed-system: "Grb2 SH2 (UniProt P62993)"
  SH2 binding enrichment: 0.967
- sequence: "RPGGRYPVARR [SHANK3_Y1569_S1566G]"
  assayed-system: "Grb2 SH2 (UniProt P62993)"
  SH2 binding enrichment: 0.749
- sequence: "THLARYSDELR [APOA1_Y190_P189R]"
  assayed-system: "Grb2 SH2 (UniProt P62993)"
  SH2 binding enrichment: 0.96
- sequence: "KRISCYEARYQ [PFKFB3_Y194_S197R]"
  assayed-system: "Grb2 SH2 (UniProt P62993)"
  SH2 binding enrichment: 0.915
- sequence: "KDFTIYNPNLL [VANGL1_Y290]"
  assayed-system: "Grb2 SH2 (UniProt P62993)"
  SH2 binding enrichment: 0.703

A = LTSKPYAFTAR [NDUFS1_Y236]
B = FCRHNYGVVES [HLA-DRB1_Y112_YF]
Q. Quick one: lower SH2 binding enrichment, A or B ? Selection: enter the item's label.
A. A
